system: P. berghei ANKA liver stages; assay: Liver stage susceptibility, luciferase-based assay (PbLuc sporozoites in HepG2); assay type: cell-based; conditions: Plasmodium berghei, HepG2; compound added 2 h after infection; read-out: IC50, liver stage, post-invasion exposure
pIC50: −log10 of the molar value.
Reported endpoint: pIC50

Name the recorded pIC50 of the molecule listed here: `CC(C)(CN)c1nc(-c2ccc(Cl)c(O)c2)c(-c2ccncc2)[nH]1` < 5.00

###

biological target: AAT cKD line; test: Compound susceptibility assay using cKD lines (72 h, Renilla luciferase); type: cell-based, Plasmodium falciparum; settings: AAT cKD line, KD, [aTc] used 0.0
Reported endpoint: IC50 (nM)
// return numeric value only (unit: nM, not printed)

Read the entry `CC(C)(CN)c1nc(-c2ccc(Cl)c(O)c2)c(-c2ccnc(N)n2)[nH]1` and write its reported IC50. 18.5
